Provide the recorded growth inhibition for the entries that follow.
Assay: NCI Yeast Anticancer Drug Screen. Data for the mlh1 rad18 strain (AID 175)
Conditions: S. cerevisiae mlh1 rad18 strain growth inhibition; at 50.0 µM; hits give high values
Compounds without any hit were thinned out: in the full panel of roughly 79,000, 15% have a hit.
Answers are plain numbers, in %.

Worked cases, answers included:
C(=C/c1ccc(-c2ccccc2)cc1)/c1ccc(-c2ccccc2)cc1 : -2.45
O=c1c2cnc3cc(Cl)ccc3c2[nH]n1-c1ccc(Cl)cc1 : 2.9
CCOC(=O)C(C=C(C)C)(CC)C(=O)OCC : -21.9
CC(=O)C1=C(C)Cn2c(=O)c3ccccc3c(=O)n2C1 : -0.05
O=C(CSC1=NCCN1)c1ccccc1 : 11.6

List the reported growth inhibition of each compound below.
1. Cc1ccccc1C(c1ccccc1C)C(CC(=O)O)CC(=O)O
2. CCSCC(C)C(=O)OC (stereo not given)
3. OCCN(CCO)c1ncnc2c1ncn2-c1ccc(CCCl)cc1
4. Cc1[nH]n(C(=N)N)c(=O)c1CCO
5. O=C1C2=Cc3ccccc3OC2(O)Oc2ccc(O)cc21 (stereo not given)
6. CC1CCCC(C)(c2ccccc2)/C1=N\Nc1ccc([N+](=O)[O-])cc1[N+](=O)[O-] (stereo not given)
7. Cc1cccc(C(=O)OC(=O)c2cccc(C)c2)c1

[-2.6, -40.3, 0.1, -50.7, -33.5, 29.9, 10.3]

List the reported growth inhibition of each compound below.
1. COC(=O)/C=C1/OC(c2ccc(C)cc2C)=CC1=O
2. CCOC(=O)c1ccc(N)cc1
3. O=C1c2ccccc2CCC12OC2c1ccccn1 (stereo not given)
4. Cc1nc(C)c(C(=O)NNC(=O)C[n+]2ccccc2)cc1C(=O)NNC(=O)C[n+]1ccccc1
5. CCCCN(CCCC)C(=O)OCC

1. 57.1
2. -1.8
3. 84.2
4. -25.1
5. 14.5

List the reported growth inhibition of each compound below.
1. O=C(COc1cc(Cl)c(Cl)cc1Cl)Oc1ccccc1
2. COC(=O)c1c(OC)cc2cc3c(c(O)c2c1C)C(=O)C1(O)C(=O)C=C(OC)C(OC(=O)CC(C)N)=C1C3=O (stereo not given)
3. CCOC(=O)Cc1ccc2c(c1)sc1nc(-c3ccc(OC)cc3)cn12
4. Nc1ccc(/C(=N\O)c2ccccc2)cc1
5. Cc1cn(C2CC(N=[N+]=[N-])C(CO)O2)c(=O)[nH]c1=O (stereo not given)

1. 3.6
2. 33
3. 18.6
4. 10.1
5. -15.6

###

Provide the recorded growth inhibition for the entries that follow.
Assay: NCI Yeast Anticancer Drug Screen. Data for the bub3 strain (AID 167)
Details: S. cerevisiae bub3 mutant strain, at 50.0 µM, hits give high values
This is part of a sample that, as a whole, favours compounds with a hit. Of some 79,000 tested, about 15% had one in any assay.
Give bare numbers, in %.

Worked cases, answers included:
CC1Oc2c(c(=O)oc3ccccc23)[C@@]1(C)CC1C[C@H](C)C(=O)O1 (some centres not stated) : 11.4
C/C(=N\N)c1ccc(-c2ccccc2)cc1 : -30.7
Nc1cc(S(=O)(=O)O)cc2cccc(S(=O)(=O)O)c12 : 25.2
CCCCCCCCCCCCCCCCCCCCCC(C)C : -7.55
c1ccc(-c2cc(CNc3nc4ccccc4s3)on2)cc1 : -4.55

List the reported growth inhibition of each compound below.
1. Cc1ccc(/C=N/n2c(Cc3ccccc3)n[nH]c2=O)cc1
2. Cc1cccc(-c2nc(-c3cnccn3)n(Cc3ccccc3)n2)c1
3. COCCn1nc(-c2ccc(Cl)cc2)c(-c2ccc(Cl)cc2)c(C(C)=O)c1=O

4.25
-51.1
-1.7

List the reported growth inhibition of each compound below.
1. O=C(Nc1cccc(Cl)c1)OCc1ccccn1
2. O=S(=O)(Nc1nccs1)c1ccc(Cl)cc1
3. O=C(CCNC(=O)OCc1ccccc1)NC(Cc1ccccc1)C(=O)OCc1ccccc1 (configuration not stated)
4. CCOC(=O)C1(C(=O)OCC)CCCCC1=O

[-0.95, 33, 2.4, -46.6]

###

Test: NCI Yeast Anticancer Drug Screen. Data for the bub3 strain (AID 167)
Settings: S. cerevisiae bub3 mutant strain, at 50.0 µM, hits give high values
This is part of a sample that, as a whole, favours compounds with a hit. Of some 79,000 tested, about 15% had one in any assay.
experimentalReadout: growth inhibition (%)
Numbers only, in %.

CCCCCCCCCCCCCCCCCCOCCCCCC : -10.3
COc1cccc(C2c3cc4c(cc3OC(N3CCCC3)C2C)OCO4)c1OC (configuration not stated) : 11.4
CC(C)CC(NC(=O)CN)C(=O)O (configuration not stated) : -6

List the reported growth inhibition of each molecule below.
1. COc1ccc(C(C)=O)c(O)c1
2. CCOc1ccc(NC(=O)Oc2ccc(-c3ccccc3)cc2)cc1
3. Cc1cc(C)c(C(CC(=O)O)C(CC(=O)O)c2c(C)cc(C)cc2C)c(C)c1 (configuration not stated)

1: 3.2; 2: 56.7; 3: -6.85

###

Experiment: NCI Yeast Anticancer Drug Screen. Data for the rad50 strain (AID 155);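 further: 0% = growth of vehicle-only cultures of the same strain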
Conditions: S. cerevisiae rad50 strain growth inhibition; at 50.0 µM
About 79,000 compounds went through this panel and 15% of them were active in at least one assay; those are over-represented in the sample as a whole. The source made the active and inactive calls. Rule as the data show it: active = growth inhibition above about 70%; inactive = the rest.
Outcome field: choose from active, inactive

Below, 5 molecules whose answers are already recorded.
CC(C)=NNC(=O)c1ccc([N+](=O)[O-])cc1 : inactive
Nc1ncnc2c1ncn2C[c-]1[c-][c-][c-][c-]1.[Fe].[c-]1[c-][c-][cH-][c-]1 : inactive
Cc1cc(NCCN(C(C)C)C(C)C)nc(Nc2nc3cc(Cl)c(Cl)cc3[nH]2)n1 : active
COC1=CC(=O)O/C1=C(\OC)C1OC1c1ccccc1 (configuration not stated) : inactive
Cc1ccccc1C(c1ccccc1C)C(CC(=O)O)CC(=O)O : inactive

Field: outcome | Entry: C=C(Br)C[N+](CC)(CC)CC inactive

Field: outcome | Entry: CC(=O)NC(=O)C(C(C)=O)c1ccccc1 (configuration not stated) inactive

Field: outcome | Entry: O=C1CN(C=C(C(=O)c2ccccc2)C(=O)c2ccccc2)C(=S)N1 inactive

###

Provide the recorded growth inhibition for the entries that follow.
Experiment: NCI Yeast Anticancer Drug Screen. Data for the cln2 rad14 strain (AID 165);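 further: 0% = growth equal to vehicle treated cultures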
Conditions: S. cerevisiae cln2 rad14 strain, at 50.0 µM, hits give high values
The panel holds about 79,000 compounds, 15% with a hit somewhere; the sample as a whole holds those more often. Activity calls are given as the source filed them. No stated cut-off is given here; in the data, active means growth inhibition above about 70%; inactive means the rest.

CN=C(N/N=C/c1ccccc1)N(C)C : -3% (inactive)

List the reported growth inhibition of each compound below.
1. COc1ccc(C=O)c(Br)c1O
2. CCOC(=O)c1c(C)c2c(n1C)CCC(C#N)C2=O (configuration not stated)

["22.4% (inactive)", "21.1% (inactive)"]

List the reported growth inhibition of each compound below.
1. CCCSc1ccc2c3c(cccc13)C(=O)OC2=O
2. [O-][n+]1onc2c1/C(=N/O)CCC2
3. O=C(Nc1ccc(Cl)c(Cl)c1)OCC1CC2C=CC1C2 (configuration not stated)
4. CNC(=O)C1CCC(=O)N1Cc1c[nH]c2ccccc12 (configuration not stated)

1. 45.6% (inactive)
2. -2.3% (inactive)
3. 94.8% (active)
4. 2.25% (inactive)

###

Experiment: NCI Yeast Anticancer Drug Screen. Data for the mlh1 rad18 strain (AID 175)
Conditions: S. cerevisiae mlh1 rad18 strain growth inhibition; at 50.0 µM
Compounds without any hit were thinned out: in the full panel of roughly 79,000, 15% have a hit. Calls of active or inactive are those of the source. Rule as the data show it: active = growth inhibition above about 70%; inactive = the rest.
Outcome field: choose from yes for active, no for inactive

Below, 2 compounds whose answers are already recorded.
CCN(CC)CCNc1ccccc1 : no
C=C(C)C(=O)OC1CC2(C)OC2CC(OC(C)=O)/C(C)=C/C2OC(=O)C(=C)C21 (stereo not drawn) : no

Field: outcome | Entry: Cc1cc(C(=O)O)ccc1C(=O)O no

Field: outcome | Entry: c1ccc(-c2c[s+]cc(-c3ccccc3)c2)cc1 yes

Field: outcome | Entry: COc1ccc(NC(=O)/C(Cc2nc3ccccc3[nH]c2=O)=N\O)c(OC)c1 no

###

Assay: NCI Yeast Anticancer Drug Screen. Data for the rad50 strain (AID 155);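 further: 0% = growth of vehicle-only cultures of the same strain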
Conditions: S. cerevisiae rad50 strain growth inhibition; at 50.0 µM
The panel holds about 79,000 compounds, 15% with a hit somewhere; the sample as a whole holds those more often. Active and inactive are the calls of the source. No stated cut-off is given here; in the data, active means growth inhibition above about 70%; inactive means the rest.
Outcome field: choose from 1 (active), 0 (inactive)

COc1ccc2oc(=O)c(-c3csc(-c4ccccc4)n3)cc2c1 : 0
O=S(=O)(SC(S(=O)(=O)c1ccccc1)S(=O)(=O)c1ccccc1)c1ccccc1 : 0
CCc1c[nH]c(C=O)c1CC : 0

Field: outcome | Entry: NNC(=O)C(=O)N/N=C(/CC1(O)C(=O)Nc2ccccc21)c1ccc(Cl)cc1Cl (centres undefined) 0

Field: outcome | Entry: CNC(CCNCCc1ccccc1)CNCCc1ccccc1 (centres undefined) 0

Field: outcome | Entry: CC(=O)OC1=C(C)C2=C3OC(=O)C(C)=C3CC[C@@]2(C)CC1 0

Field: outcome | Entry: CCCCNc1ncnc2c1cnn2-c1ccccc1 0

Field: outcome | Entry: CCC1(C#N)N=C(c2ccccc2)c2ccccc2N1C(=O)OC (centres undefined) 0
